- Tested on: Plasmodium falciparum
- protocol_notes: GSK_TCMDC: Inhibition of Plasmodium falciparum Dd2 in whole red blood cells, using parasite LDH activity as an index of growth. Test compounds present at 2uM
- Type: functional
measured_metric: Inhibition (%)
Just the number please, in %, no unit attached.

Solved entries:
{"compound": "Cc1ccc(CNC(=O)[C@H](Cc2ccccc2)Nc2cc(C)nc(NCC3CCCCC3)n2)cc1.O=C(O)C(F)(F)F", "Inhibition, %": 89}
{"compound": "O=C(Nc1cccc(CN2CCCN(Cc3ccsc3)CC2)c1)c1ccc(-c2ccccc2)cc1.O=C(O)C(F)(F)F", "Inhibition, %": 11}
{"compound": "COc1cc2nc(N3CCN(C(=O)c4ccco4)CC3)nc(NCc3ccccc3)c2cc1OC", "Inhibition, %": 99}
{"compound": "COc1cc(C)nc2ccc(NC(=O)Nc3ccccc3[N+](=O)[O-])cc12", "Inhibition, %": 58}
{"compound": "O=C(/C=C/c1ccc(Cl)c(Cl)c1)NC1CCN(Cc2cccc(O)c2)CC1.O=C(O)C(F)(F)F", "Inhibition, %": 0}
{"compound": "CCOc1ccc2c(c1)N(C(=O)C=Cc1ccccc1)C(C)(C)c1ssc(=S)c1-2", "Inhibition, %": 77}
{"compound": "O=C(Nc1ccc(Cl)cc1)c1cc(Cl)ccc1NC(=O)C1CCc2ccccc2O1 (stereo not given)", "Inhibition, %": 63}
{"compound": "Cc1ccc(N2C(N)=NC(N)=NC2(C)C)cc1Cl.Cl", "Inhibition, %": 77}

Record summary for CC[C@H]1CN2CCc3cc(OC)c(OC)cc3[C@@H]2C[C@@H]1C[C@H]1NCCc2cc(OC)c(OC)cc21 : reported Inhibition = 99

Entry O=C(Nc1cccnc1)c1cc(-c2cccnc2)nc2ccc(Br)cc12 ; Inhibition = 60

###

- Tested on: Plasmodium falciparum
- protocol_notes: GSK_TCMDC: Inhibition of Plasmodium falciparum 3D7 in whole red blood cells, using parasite LDH activity as an index of growth. Test compounds present at 2uM
- Format: functional
Overview of recorded Inhibition for various compounds
Returns: string containing the number followed by the unit.

Previously resolved entries follow.
{"compound": "CCN(CC)CCN(Cc1ccc(-c2ccc(C(F)(F)F)cc2)cc1)C(=O)c1c[nH]c2ccc(Br)cc12", "Inhibition": "90%"}
{"compound": "CCCOc1cc2c(cc1OCCC)C(C=Cc1ccc(Cl)cc1Cl)=NC(C)C2.Cl (stereo not drawn)", "Inhibition": "90%"}

Note: attention shifts to another entry.
Item: CC(C)N1CCN(c2ccc(OCCCCN3CCN(c4cccc(Cl)c4Cl)CC3)cc2Cl)CC1.Cl | Inhibition: 89%

###

- Test system: HepG2
- protocol_notes: GSK_TCMDC: Percent inhibition of human HepG2 cell line. Test compounds present at 10uM.
- Format: functional
Recorded Inhibition values for a group of compounds are listed next.
Please give a number only; it is taken to be in %.

{"compound": "C=CCOC(=O)N1CCC(CNCc2cccc(-c3cccc(-c4nc5ccccc5[nH]4)c3)c2)C1.O=C(O)C(F)(F)F (configuration not stated)", "target_entity": "HepG2", "Inhibition (%)": 16}
{"compound": "CC(C)(C)c1ccc(NC(=O)N[C@@H]2CCN(c3ccnc4ccccc34)C2)cc1.Cl", "target_entity": "HepG2", "Inhibition (%)": 23}
{"compound": "O=C(Nc1ccc(Cn2ncc(N3CCCNCC3)c(Cl)c2=O)cc1)Nc1ccc(OCc2ccccc2)cc1.O=C(O)C(F)(F)F", "target_entity": "HepG2", "Inhibition (%)": 15}
{"compound": "O=C(NCC1CCN(Cc2ccc3c(c2)OCCO3)C1)c1cc(-c2ccccc2F)cs1.O=C(O)C(F)(F)F (configuration not stated)", "target_entity": "HepG2", "Inhibition (%)": 18}
{"compound": "Cl.Oc1ccc2[nH]c(-c3cccs3)nc2c1CN1CCC(O)(c2ccccc2)CC1", "target_entity": "HepG2", "Inhibition (%)": 10}
{"compound": "COc1ccc(/C=C/C(=O)NCCCCCN2CCC(c3c[nH]c4ccccc34)CC2)cc1O", "target_entity": "HepG2", "Inhibition (%)": 9}
{"compound": "Cc1cccc2nc(-c3ccc(-c4cccc(NC(=O)Nc5ccc(Cl)cc5)c4)s3)[nH]c12", "target_entity": "HepG2", "Inhibition (%)": 25}
{"compound": "COc1ccc(-c2cc(C(=O)N[C@@H](Cc3ccccc3)C(=O)NCCN3CCCCC3)ccc2O)cc1", "target_entity": "HepG2", "Inhibition (%)": 0}
{"compound": "O=C(NCC1CC1)C1Cc2c([nH]c3ccc(Br)cc23)C2(CCN(CCc3ccccc3)CC2)N1 (configuration not stated)", "target_entity": "HepG2", "Inhibition (%)": 14}
{"compound": "Cc1ccc(NC(=O)c2ccc3ncccc3c2)cc1OC1CCN(Cc2ccc(F)cc2)CC1.O=C(O)C(F)(F)F", "target_entity": "HepG2", "Inhibition (%)": 6}

CCOC(=O)C1CCN(CCOc2cc(NC(=O)/C=C/c3ccccc3Cl)ccc2Br)CC1.O=C(O)C(=O)O yielded Inhibition of 6

// recorded Inhibition for CCN1CCN(Cc2c(O)ccc3c(=O)c(Oc4cc(C)cc(C)c4)c(C(F)(F)F)oc23)CC1 : 6
